- setup.conditions: in ethanol, 303.15 K
readout.label: solubility (mole fraction)
Write no unit; give the number alone.

Please supply the value of reported solubility (mole fraction) for the item N[C@@H](Cc1c[nH]c2ccccc12)C(=O)O
0.000246

Please supply the value of reported solubility (mole fraction) for the item N[C@@H](Cc1cnc[nH]1)C(=O)O
3.1e-05

----------
- setup.conditions: in water, 298.15 K
readout.label: solubility (mole fraction)
Write no unit; give the number alone.

Please supply the value of reported solubility (mole fraction) for the item N[C@@H](Cc1c[nH]c2ccccc12)C(=O)O
0.00122

Please supply the value of reported solubility (mole fraction) for the item N[C@@H](Cc1cnc[nH]1)C(=O)O
0.0046

Source listed as BigSolDB 2.1.
